species on record: Rattus norvegicus; assay: DrugMatrix - Regimen: Daily Repeat; type: toxicity, organism-based, Sprague-Dawley; set-up: regimen Daily Repeat, gender Male, age 6-8 weeks; conditions: in vivo, po, 0 mg/kg, 120 h, tissue Blood, route oral GAVAGE, dose level Control, time 5 day, vehicle .5 % CMC
# key: entry, value: MEAN CORPUSCULAR VOLUME

{"MOLECULE": "C[C@](O)(CS(=O)(=O)c1ccc(F)cc1)C(=O)Nc1ccc(C#N)c(C(F)(F)F)c1 [(R)-BICALUTAMIDE]", "MEAN CORPUSCULAR VOLUME [fL]": 61.53}
{"MOLECULE": "OC(CCN1CCCCC1)(c1ccccc1)C1CCCCC1 (stereo not drawn)", "MEAN CORPUSCULAR VOLUME [fL]": 63.13}
{"MOLECULE": "O=C1CCC(N2C(=O)c3ccccc3C2=O)C(=O)N1 (stereo not drawn) [THALIDOMIDE]", "MEAN CORPUSCULAR VOLUME [fL]": 63.72}

---

species on record: Rattus norvegicus; experiment: DrugMatrix - Regimen: Daily Repeat; format: toxicity, organism-based, Sprague-Dawley; set-up: regimen Daily Repeat, gender Male, age 6-8 weeks; conditions: in vivo, po, 0 mg/kg, 120 h, tissue Blood, route oral GAVAGE, dose level Control, time 5 day, vehicle 100 % WATER

{"MOLECULE": "COC(=O)C1=C(C)NC(C)=C(C(=O)OCC(C)C)C1c1ccccc1[N+](=O)[O-] (centres undefined)", "ABSOLUTE EOSINOPHIL, CELLS/uL": 0}
{"MOLECULE": "ClC(Cl)Cl [CHLOROFORM]", "ABSOLUTE EOSINOPHIL, CELLS/uL": 26.67}
{"MOLECULE": "Nc1ccn([C@@H]2CS[C@H](CO)O2)c(=O)n1", "ABSOLUTE EOSINOPHIL, CELLS/uL": 14.5}
{"MOLECULE": "CC(C)NCC(O)COc1cccc2ccccc12 (centres undefined)", "ABSOLUTE EOSINOPHIL, CELLS/uL": 23.5}

---

species: Rattus norvegicus; assay: DrugMatrix - Regimen: Daily Repeat; type: toxicity, organism-based, Sprague-Dawley; set-up: regimen Daily Repeat, gender Male, age 6-8 weeks; settings: in vivo, po, 0 mg/kg, 120 h, tissue Plasma, route oral GAVAGE, dose level Control, time 5 day, vehicle 100 % WATER
MEASURE NAME: POTASSIUM (MEQ/L)

{"MOLECULE": "C[C@@H]1C[C@@H]([C@H](O)CC2CC(=O)NC(=O)C2)C(=O)[C@@H](C)C1 [CYCLOHEXIMIDE]", "MEASURE NAME": "POTASSIUM", "TEST VALUE": 5.73}
{"MOLECULE": "CC(C)(C)c1ccc(C(=O)CCCN2CCC(OC(c3ccccc3)c3ccccc3)CC2)cc1 [EBASTINE]", "MEASURE NAME": "POTASSIUM", "TEST VALUE": 6.39}
{"MOLECULE": "CC(C)C[C@H](NC(=O)[C@@H](O)[C@H](N)Cc1ccccc1)C(=O)O [UBENIMEX]", "MEASURE NAME": "POTASSIUM", "TEST VALUE": 6.4}
{"MOLECULE": "Cc1ncc([N+](=O)[O-])n1CCO [METRONIDAZOLE]", "MEASURE NAME": "POTASSIUM", "TEST VALUE": 6.11}
{"MOLECULE": "Nc1ccn([C@@H]2CS[C@H](CO)O2)c(=O)n1 [LAMIVUDINE]", "MEASURE NAME": "POTASSIUM", "TEST VALUE": 6.07}

---

organism: Rattus norvegicus; assay: DrugMatrix - Regimen: Daily Repeat; format: toxicity, organism-based, Sprague-Dawley; parameters: regimen Daily Repeat, gender Male, age 6-8 weeks; conditions: in vivo, po, 0 mg/kg, 120 h, tissue Blood, route oral GAVAGE, dose level Control, time 5 day, […]
Values of LEUKOCYTE COUNT greater than or equal to 10 x10E3/uL map to satisfied; values below map to not satisfied.

{"COMPOUND": "Clc1ccc(Cl)cc1 [1,4-DICHLOROBENZENE]", "ASSIGNED CLASS": "satisfied"}
{"COMPOUND": "C[C@H]1O[C@@H](O[C@H]2[C@@H](O)C[C@H](O[C@H]3[C@@H](O)C[C@H](O[C@H]4CC[C@@]5(C)[C@H](CC[C@@H]6[C@@H]5CC[C@]5(C)[C@@H](C7=CC(=O)OC7)CC[C@]65O)C4)O[C@@H]3C)O[C@@H]2C)C[C@H](O)[C@@H]1O [DIGITOXIN]", "ASSIGNED CLASS": "satisfied"}
{"COMPOUND": "CC(C)Cc1ccc(C(C)C(=O)O)cc1 (centres undefined) [IBUPROFEN]", "ASSIGNED CLASS": "not satisfied"}
{"COMPOUND": "COCCOC(=O)C1=C(C)NC(C)=C(C(=O)OC(C)C)C1c1cccc([N+](=O)[O-])c1 (centres undefined) [NIMODIPINE]", "ASSIGNED CLASS": "not satisfied"}
{"COMPOUND": "CC/C(=C(/CC)c1ccc(O)cc1)c1ccc(O)cc1 [DIETHYLSTILBESTROL]", "ASSIGNED CLASS": "not satisfied"}
{"COMPOUND": "CCOC(=O)C1=C(C)NC(C)=C(C(=O)OC)C1c1cccc([N+](=O)[O-])c1 (centres undefined) [NITRENDIPINE]", "ASSIGNED CLASS": "not satisfied"}
{"COMPOUND": "COc1ccc2[nH]c([S+]([O-])Cc3ncc(C)c(OC)c3C)nc2c1 (centres undefined) [OMEPRAZOLE]", "ASSIGNED CLASS": "satisfied"}
{"COMPOUND": "CC(=O)Nc1cccc(O)c1 [METACETAMOL]", "ASSIGNED CLASS": "satisfied"}
{"COMPOUND": "O=NN(CCCl)C(=O)NCCCl [CARMUSTINE]", "ASSIGNED CLASS": "satisfied"}
{"COMPOUND": "CCCCCCCCc1ccc(O)cc1 [4-OCTYLPHENOL]", "ASSIGNED CLASS": "satisfied"}
{"COMPOUND": "CC(C)(Oc1ccc(C2CCCc3ccccc32)cc1)C(=O)O (centres undefined) [NAFENOPIN]", "ASSIGNED CLASS": "satisfied"}
{"COMPOUND": "CC(=O)Nc1ccc(O)cc1 [ACETAMINOPHEN]", "ASSIGNED CLASS": "satisfied"}

---

# key: entry, value: NEUTROPHIL
species on record: Rattus norvegicus; test: DrugMatrix - Regimen: Daily Repeat; format: toxicity, organism-based, Sprague-Dawley; set-up: regimen Daily Repeat, gender Male, age 6-8 weeks; conditions: in vivo, iv, 0 mg/kg, 120 h, tissue Blood, dose level Control, time 5 day, vehicle 100 % SALINE
MEASURE NAME: NEUTROPHIL (%)

{"MOLECULE": "COc1cccc2c1C(=O)c1c(O)c3c(c(O)c1C2=O)C[C@@](O)(C(=O)CO)C[C@@H]3O[C@H]1C[C@H](N)[C@@H](O)[C@H](C)O1 [EPIRUBICIN]", "TEST VALUE": 7.83}
{"MOLECULE": "CCC1=C[C@@H]2CN(C1)Cc1c([nH]c3ccccc13)[C@@](C(=O)OC)(c1cc3c(cc1OC)N(C)[C@H]1[C@@](O)(C(=O)OC)[C@H](OC(C)=O)[C@]4(CC)C=CCN5CC[C@]31[C@@H]54)C2", "TEST VALUE": 10.17}
{"MOLECULE": "CCc1c2c(nc3ccc(OC(=O)N4CCC(N5CCCCC5)CC4)cc13)-c1cc3c(c(=O)n1C2)COC(=O)[C@]3(O)CC", "TEST VALUE": 7.83}

---

species: Rattus norvegicus; assay: DrugMatrix - Regimen: Daily Repeat; assay type: toxicity, organism-based, Sprague-Dawley; set-up: regimen Daily Repeat, gender Male, age 6-8 weeks; conditions: in vivo, po, 0 mg/kg, 120 h, tissue Blood, route oral GAVAGE, dose level Control, time 5 day, […]
# key: entry, value: ABSOLUTE MONOCYTE

{"COMPOUND": "O=NN(CCCl)C(=O)NCCCl [CARMUSTINE]", "UNITS OF MEASURE": "CELLS/uL", "ABSOLUTE MONOCYTE": 90.5}
{"COMPOUND": "CC/C(=C(/CC)c1ccc(O)cc1)c1ccc(O)cc1 [DIETHYLSTILBESTROL]", "UNITS OF MEASURE": "CELLS/uL", "ABSOLUTE MONOCYTE": 82.83}
{"COMPOUND": "O=C(O)Cc1ccccc1Nc1c(Cl)cccc1Cl [DICLOFENAC]", "UNITS OF MEASURE": "CELLS/uL", "ABSOLUTE MONOCYTE": 49.5}
{"COMPOUND": "CCCCCCCCc1ccc(O)cc1 [4-OCTYLPHENOL]", "UNITS OF MEASURE": "CELLS/uL", "ABSOLUTE MONOCYTE": 117}
{"COMPOUND": "C[C@H]1O[C@@H](O[C@H]2[C@@H](O)C[C@H](O[C@H]3[C@@H](O)C[C@H](O[C@H]4CC[C@@]5(C)[C@H](CC[C@@H]6[C@@H]5CC[C@]5(C)[C@@H](C7=CC(=O)OC7)CC[C@]65O)C4)O[C@@H]3C)O[C@@H]2C)C[C@H](O)[C@@H]1O [DIGITOXIN]", "UNITS OF MEASURE": "CELLS/uL", "ABSOLUTE MONOCYTE": 47}
